- assayMethodText: physchem
- conditionSet: water
measuredParameter: solubility (µg/mL)
Your answer is read as µg/mL, so omit the unit and give the number.

Prompt: Can you share its solubility? I mean this compound: "CC(C)c1nc(N(C)S(C)(=O)=O)nc(-c2ccc(F)cc2)c1/C=C/[C@@H](O)C[C@@H](O)CC(=O)O"
Completion: 5300

Where do these numbers come from? They come from patent US8846708B2.
